# Tested on: 24-hydroxylase (24OHase) gene promoter
# PROCEDURE_TEXT: In vitro transcription assay (24-hydroxylase promoter-luciferase in ROS 17/2.8 bone cells)
# Format: cell-based, rat
# RUN_PARAMETERS: Rattus norvegicus
ATTRIBUTE_MEASURED: pEC50
Lab note: report pEC50 as minus log10 of the concentration in molar units, number only.

Example entries begin here.
{"COMPOUND": "C=C1[C@H](O)CC(=C/C=C2\\CCC[C@@]3(C)C2CC[C@@H]3[C@@H](C)[C@@H](C)CCC(C)(C)O)C[C@H]1O (stereo partly shown)", "pEC50": 8.52}
{"COMPOUND": "C=C1[C@H](O)CC(=C/C=C2\\CCC[C@@]3(C)C2CC[C@@H]3[C@H](C)[C@@H](C)CCC(C)(C)O)C[C@H]1O (stereo partly shown)", "pEC50": 9.52}
{"COMPOUND": "C=C1[C@H](O)CC(=C/C=C2\\CCC[C@@]3(C)C2CC[C@@H]3[C@@H](C)[C@H](C)CCC(C)(C)O)C[C@H]1O (stereo partly shown)", "pEC50": 11.10}

Attention now shifts to the item below.
Input: GET /values?readout=pEC50&item= C=C1[C@H](O)CC(=C/C=C2\CCC[C@@]3(C)C2CC[C@@H]3[C@H](C)[C@H](C)CCC(C)(C)O)C[C@H]1O (stereo partly shown)
Output: 8.22

====

# System: HL-60 cells
# PROCEDURE_TEXT: HL-60 differentiation (nitro blue tetrazolium reduction)
# Format: cell-based, human
# RUN_PARAMETERS: Homo sapiens, HL-60
A collection of compounds and their measured EC50
Supply the numeric figure in nM, leaving out any unit text.

Input: Please look up its EC50: C=C1[C@H](O)CC(=C/C=C2\CCC[C@@]3(C)C2CC[C@@H]3[C@H](C)[C@H](C)CCC(C)(C)O)C[C@H]1O (stereo partly shown)
Output: 9

Input: Form field: reported EC50 of C=C1[C@H](O)CC(=C/C=C2\CCC[C@@]3(C)C2CC[C@@H]3[C@@H](C)[C@H](C)CCC(C)(C)O)C[C@H]1O (stereo partly shown)
Output: 0.01

Input: For C=C1[C@H](O)CC(=C/C=C2\CCC[C@@]3(C)C2CC[C@@H]3[C@H](C)[C@@H](C)CCC(C)(C)O)C[C@H]1O (stereo partly shown) , what is its reported EC50?
Output: 0.6

Input: I would be grateful if you could share the reported EC50 for C=C1[C@H](O)CC(=C/C=C2\CCC[C@@]3(C)C2CC[C@@H]3[C@@H](C)[C@@H](C)CCC(C)(C)O)C[C@H]1O (stereo partly shown) .
Output: 20
